These compounds were tested on Egl nine homolog 1 (Homo sapiens); IC50 is the recorded read-out.
Sequence (Q9GZT9 whole entry): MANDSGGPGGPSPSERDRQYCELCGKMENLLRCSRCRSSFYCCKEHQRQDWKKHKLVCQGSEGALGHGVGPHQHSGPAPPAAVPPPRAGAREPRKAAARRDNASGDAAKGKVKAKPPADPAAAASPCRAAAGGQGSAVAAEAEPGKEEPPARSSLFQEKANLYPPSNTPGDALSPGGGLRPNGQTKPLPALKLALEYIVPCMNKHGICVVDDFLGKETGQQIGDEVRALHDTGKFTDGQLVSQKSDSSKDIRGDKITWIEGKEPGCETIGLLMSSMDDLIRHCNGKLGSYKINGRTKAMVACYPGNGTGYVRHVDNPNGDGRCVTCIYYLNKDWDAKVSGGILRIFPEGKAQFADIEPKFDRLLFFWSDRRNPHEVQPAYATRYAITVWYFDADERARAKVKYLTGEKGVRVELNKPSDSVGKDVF

Field IC50 (system: Egl nine homolog 1 (Homo sapiens)) for entry CCOC(=O)Cc1csc(NC(=O)CS(=O)(=O)c2ccccc2)n1 = > 40 µM

Field IC50 (system: Egl nine homolog 1 (Homo sapiens)) for entry CC(C)(C(=O)O)c1cs/c(=N/C(=O)CS(=O)(=O)c2ccccc2)n1O = > 40 µM

Could you now look at the following compound, please?
Field IC50 (system: Egl nine homolog 1 (Homo sapiens)) for entry O=C(O)Cc1cs/c(=N/C(=O)CCc2ccccc2)n1O = > 40 µM
